# EC50 per record follows
- System: Lu1
- TEST METHOD NOTES: Cytotoxicity against human Lu1 cells
- Type: functional
- CONDITION SUMMARY: read-out: ED50 (the source's name)

Answered cases to consult:
compound=COc1cc(/C=C/C(=O)O[C@@H]2C[C@@H]3[C@@H](OC(=O)c4ccccc4)[C@@H](OC(C)=O)[C@H](C2)N3C)cc(OC)c1OC measured_target=Lu1 measured="> 20 µg/mL"
compound=COc1cc(/C=C/C(=O)O[C@H]2C[C@H]3C[C@H](OC(=O)c4ccccc4)[C@@H](C2)N3C)cc(OC)c1OC measured_target=Lu1 measured="> 20 µg/mL"
compound=COc1cc(/C=C/C(=O)O[C@@H]2C[C@@H]3[C@@H](OC(=O)c4cc(OC)c(OC)c(OC)c4)[C@@H](O)[C@H](C2)N3C)cc(OC)c1OC measured_target=Lu1 measured="14.6 µg/mL"
compound="CN1C2C[C@H](O)CC1[C@@H](OC(=O)c1ccccc1)C2 (stereo partly specified)" measured_target=Lu1 measured="> 20 µg/mL"
compound=COc1cc(/C=C\C(=O)O[C@H]2C[C@H]3C[C@H](OC(=O)c4ccccc4)[C@@H](C2)N3C)cc(OC)c1OC measured_target=Lu1 measured="> 20 µg/mL"

If you can, please state the reported EC50 value of "COc1cc(/C=C/C(=O)O[C@@H]2C[C@@H]3[C@@H](OC(=O)c4ccccc4)[C@@H](O)[C@H](C2)N3C)cc(OC)c1OC" .
> 20 µg/mL
